From: PubChem BioAssay

# Tested on: PRMT1 (protein arginine N-methyltransferase 1)
# Protocol Description: PRMT1 binders on small-molecule microarrays, primary screen, biochemical, small-molecule microarray, 635 nm fluorescence (AID 1088);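 also: binding of Prmt1 protein to compounds spotted on small-molecule microarray slides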
# Condition Summary: small-molecule microarray binding, higher = more signal
Decide by composite z-score: equal to or exceeding 0.7 means condition met, less means condition not met.

Molecule	Category Label
CC(C)c1ccc(NN2C(C(O)c3ccc4c(c3)OCO4)C=CC3C(=O)N(c4ccccc4)C(=O)C32)cc1 (stereo unspecified)	condition met
CC(CCN1CCCCc2nc(C)c(C)cc21)=NOC(C)CN1CCCc2nc(C)c(C)cc21 (stereo unspecified)	condition met
O=C1[C@H]2[C@H]3[C@H](O)[C@H](O)CC(=NO[C@@H]4O[C@H](CO)[C@@H](O)[C@H](O)[C@H]4O)[C@@H]3CC[C@H]2C(=O)N1c1ccc(F)cc1F	condition not met
Cc1cc2c(nc1C)CCCN2CC(O)CN1CCN(C)CC1 (stereo unspecified)	condition met
COc1ccc(O[C@H]2C=C[C@@H](c3ccccc3)O[C@@H]2COC(=O)N2CCCCC2)cc1	condition not met
CO[C@@H]1COC(=O)CC=C[C@@H](C)[C@@H]2C=C[C@H](O)[C@@H](COC(=O)CCC[C@H]1C)O2	condition met
CCOC(=O)CCN1C(=O)[C@H]2[C@H]3[C@H](O)[C@H](O)CC(=NOCc4ccccc4)[C@@H]3CC[C@H]2C1=O	condition not met
NC(=O)NCC#Cc1ccc2c(c1)[C@]1(C(=O)N2)[C@H](c2ccc(O)cc2)N2[C@H](c3ccccc3)[C@H](c3ccccc3)OC(=O)[C@H]2[C@@H]1C(=O)N1CCCCCCC1	condition met
Cc1cc2c(c(=O)o1)[C@H](O)[C@H]1O[C@H]1C2=O	condition not met
CCOC(=O)[C@H](Cc1ccccc1)NC(=O)CCC1CC(OC(=O)NCCc2ccc(F)cc2)CC2(CCCC(COC(=O)NCC(c3ccccc3)c3ccccc3)O2)O1 (stereo partly specified)	condition met
CCN1C(=O)[C@H]2[C@H]3[C@H](O)C=CC(=O)[C@@H]3CC[C@H]2C1=O	condition not met
COC(=O)[C@@H]1N=C(c2ccc(OCCCO)cc2)O[C@@H]1c1ccccc1N=[N+]=[N-]	condition met
CO[C@H]1COC(=O)[C@@H]2CCCN2C(=O)[C@@H](C)COC(=O)CC=C[C@@H]1C	condition met
O=C1c2ccccc2[C@@]2(Cc3ccccc3N(C3CC3)C2=O)[C@H](c2ccc(CO)cc2)N1Cc1ccccc1C(F)(F)F	condition not met
C=CC[C@@H]1C=C[C@H](ON=C2c3cc(OC)ccc3O[C@H](c3cccc(OC)c3)[C@H]2O)[C@@H](CO)O1	condition not met
COC(=O)[C@H](C)NC(=O)CCC1CC(OC(=O)NCc2cccc3ccccc23)CC2(CCCC(COC(=O)NCCc3ccc(Cl)cc3)O2)O1 (stereo partly specified)	condition met
CC(C)(C)OC(=O)CC[C@]1(C(N)=O)COC(c2ccc(OCCCO)cc2)=N1	condition met
O=C1[C@H]2[C@H]3[C@H](O)[C@H](O)CC(=NOCc4ccccc4)[C@H]3CC[C@H]2C(=O)N1c1cccc(Oc2ccccc2)c1	condition met
CC(C)[C@H](NC(=O)OC(C)(C)C)[C@@H](O)CC(=O)OC(C)(C)C	condition not met
CC(C)(C)OC(=O)CC[C@]1(C(=O)NCc2ccccc2)N=C(c2ccc(OCCCO)cc2)O[C@H]1c1ccccc1	condition met
CC(C)=NOCc1ccc(-c2cc(-c3ccccc3)no2)cc1	condition not met
CCOC(=O)CCN1C(=O)[C@H]2[C@H]3[C@H](O)[C@H](O)CC(=NOC[C@@H](O)COCc4ccco4)[C@@H]3CC[C@H]2C1=O	condition not met
C=CC[C@]1(C(=O)NCc2ccccc2)N=C(c2ccc(OCCCO)cc2)O[C@H]1c1ccccc1	condition met
O=C1[C@H]2[C@H]3[C@H](O)[C@H](O)CC(=NO[C@@H]4O[C@H](CO)[C@@H](O)[C@H](O)[C@H]4O)[C@H]3CC[C@H]2C(=O)N1Cc1ccccc1	condition met
CS(=O)(=O)CCOC(=O)C1=CC(CCCO)=CC(c2cccs2)N(Cc2cccc(OC(F)(F)F)c2)C=C1C(=O)OCCS(C)(=O)=O (stereo unspecified)	condition met
CCCCCN1CC=CC23O[C@@H]4C=CCOC(=O)[C@@H]4[C@H]2C(=O)N(CCCCCCO)[C@@H]3C1=O (stereo partly specified)	condition not met
O=C1[C@H]2[C@H]3[C@H](O)[C@H](O)CC(=NO[C@@H]4O[C@H](CO)[C@@H](O)[C@H](O)[C@H]4O)[C@@H]3CC[C@H]2C(=O)N1Cc1ccc2c(c1)OCO2	condition met
O=C(NN=C1C[C@@H](O)[C@@H](O)[C@@H]2[C@@H]3C(=O)N(c4ccc(F)cc4F)C(=O)[C@@H]3CC[C@@H]12)OCc1ccccc1	condition not met
C#C[C@@H](CC)O[Si](C#Cc1ccc(Oc2ccccc2)cc1)(C(C)C)C(C)C	condition met
CCc1cc2c(nc1CC)CCN(CCC(C)=NO[C@@H](C)c1cc(-c3c(C)cc(C)cc3C)no1)C2	condition not met
